- ASSAY NAME: Microsomal intrinsic clearance assay
- Format: in vitro ADME
- MEASUREMENT CONDITIONS: pH 7.4, liver microsomes 0.5 mg/mL, species (mouse or human) not given, read-out: Clint (μL/min/mg protein)

- COMPOUND: "CNC(=O)COc1cc2cc(Nc3nc(N4C[C@H](C)C[C@H](C)C4)ncc3Cl)ccc2n(C)c1=O [BI-3802, reference compound]"
  VALUE UNIT: "µL/min/mg"
  microsomal CLint at 1 μM: 112
- COMPOUND: "[2H]C([2H])([2H])NC(=O)C([2H])([2H])Oc1cc2cc(Nc3nc(N4C[C@@H](C)C(F)(F)[C@@H](C)C4)ncc3Cl)ccc2n(C)c1=O [Ib]"
  VALUE UNIT: "µL/min/mg"
  microsomal CLint at 1 μM: 17
- COMPOUND: "[2H]C([2H])([2H])NC(=O)C([2H])([2H])Oc1cc2cc(Nc3nc(N4C[C@H](C)C[C@H](C)C4)ncc3Cl)ccc2n(C)c1=O [Example Ia]"
  VALUE UNIT: "µL/min/mg"
  microsomal CLint at 1 μM: 48
